Attribution: patent US20200040071A1

study.system: T1, endothelial monocyte activating polypeptide II (EMAP II) (UniProt Q12904 147-312, limits assumed)
T1 construct: also called EMAP II antigen; EMAP II protein
T1 sequence (looked up): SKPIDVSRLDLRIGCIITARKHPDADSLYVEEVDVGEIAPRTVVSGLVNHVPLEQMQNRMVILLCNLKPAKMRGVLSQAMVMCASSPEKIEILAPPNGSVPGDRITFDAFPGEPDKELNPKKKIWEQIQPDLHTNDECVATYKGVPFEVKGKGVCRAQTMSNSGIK
assay.summary: ELISA, EMAP II coated at 1 ug/ml, anti-IgG-HRP detection, absorbance at 450 nm
quantity.name: concentration of antibodies to reach O.D 2.5

BAP072-EMAP II-2 antibody (antibody, V domains shown, also called BAP072-EMAP 11-2) VH: EVQLVQSGAEVKKPGATVKISCKVSGYTFTSYTMHWVRQAPGQGLEWMGYTNPSSGFTNYTQKFKDRVHISADKSISTAYLQWSSLKASDTAWYYCASRFAYWGQG VL: AIQLTQSPSSLSASVGDRVTITCKASQDVSTAVAWYQQKPGKAPKLLIYSASYRYWGVPSRFSGSGSGTDFTFTISRLEPEDFAVYYCQQHYSIPYTFGQG ... ≥ 100 ng/mL
BAP072-EMAP II-1 antibody (antibody, V domains shown) VH: EVQLVQSGAEVKKPGATVKISCKVSGYTFTSYTMHWVRQAPGQGLEWMGYINPRSGFTNYRQKFKHRVTISADKSISTAYLQWSSLKASDTAMYYCFSRFAYWGQG VL: AIQLTQSPSSLSASVGDRVTITCKASQDVSTAVAWYQQKPGKAPKLLIYSASYRYWGVPSRFSGSGSGTDFTFTISRLEPEDFAVYYCQQHYSIPYTFGQG ... ≤ 10 ng/mL
BAP072-EMAP II-4 antibody (antibody, V domains shown) VH: EVQLVQSGAEVKKPGATVKISCKVSGYTFTSYTMHWVRQAPGQGLEWMGYTNPSSGFTNYTQKFKDRVHISADKSISTAYLQWSSLKASDTAWYYCASRFAYWGQG VL: AIQLTQSPSSLSASVGDRVTITCKASQDVSTAVAWYQQKPGKAPKLLIYSASYGYTGVPSRFSGSGSGTDFTFTISRLEPEDFAVYYCQQHYSIPYTFGQG ... ≥ 100 ng/mL

As a next step, examine the binder that follows.
Request: Find the recorded concentration of antibodies to reach O.D 2.5 belonging to BAP072-EMAP II-3 antibody (antibody, V domains shown, also called BAP072-EMAP 11-3) VH: EVQLVQSGAEVKKPGATVKISCKVSGYTFTSYTMHWVRQAPGQGLEWMGYINPRSGFTNYRQKFKHRVTISADKSISTAYLQWSSLKASDTAMYYCFSRFAYWGQG VL: AIQLTQSPSSLSASVGDRVTITCKASQDVSTAVAWYQQKPGKAPKLLIYSASYGYTGVPSRFSGSGSGTDFTFTISRLEPEDFAVYYCQQHYSIPYTFGQG and report it.
Result: ≥ 100 ng/mL
